All figures here come from PubChem BioAssay.

test: inhibitors of hydroxyurea-induced Chk1 phosphorylation, primary screen, imaging, HeLa, phospho-Chk1 nuclear intensity (AID 1187); settings: hydroxyurea-induced phospho-Chk1 immunofluorescence imaging, higher = more signal; also: test concentration not given here
Each record here notes measured z-score.
Write no unit; give the number alone.

Challenge: Entry COCCOC(=O)N1C(=O)[C@@]2(c3ccccc31)[C@H](C(=O)Nc1nc3ccccc3s1)[C@H]1C(=O)O[C@H](c3ccccc3)[C@H](c3ccccc3)N1[C@@H]2c1ccccc1OCCO has what z-score?
Response given: 0.367

Challenge: I'd like to know its z-score. The compound in question is CC(CO)N1C(=O)[C@@H]2[C@H]3C(=O)OCC=C[C@H]3OC23C=CCN(c2ccc4ccccc4c2)C(=O)[C@@H]13 (some centres not stated)
Response given: 0.0823

Challenge: Using the record for COC(=O)C1(CC(C)C)C=C2C(=C(C)C(=O)C2C)CN1 (configuration not stated) , report its z-score.
Response given: 0.911

Challenge: Return reported z-score; argument: COC(=O)C(CC#Cc1ccc2c(c1)[C@]1(C(=O)N2)[C@H](C(=O)N2CCCCCCC2)[C@H]2C(=O)O[C@H](c3ccccc3)[C@H](c3ccccc3)N2[C@@H]1c1ccc(OCCO)cc1)C(=O)OC
Response given: 0.331

Challenge: What value of measured z-score is listed for C=C(CCCC)C(=O)CC[C@H](OC(=O)c1ccccc1-c1ccccc1C(=O)O)c1cccc(OCCO)c1 ?
Response given: 0.182

Challenge: Find the recorded z-score belonging to C=CC[C@]1(C(N)=O)N=C(c2ccc(OCCCO)cc2)O[C@H]1c1ccccc1N=[N+]=[N-] and report it.
Response given: -0.532

Challenge: Item under review: COc1ccc(NN2C(C(O)c3ccc(F)cc3)C=CC3C(=O)N(C4CCCCC4)C(=O)C32)cc1 (configuration not stated) . Reported z-score?
Response given: 0.0539

====

assay: CREB reporter modulators without forskolin, primary screen, cell-based, PC12, CRE-LacZ reporter, unstimulated (AID 1145); details: no forskolin, luminescence, 4.5 h, higher = more signal, called active from +8 up or from −8 down
# if value of z-score reaches 0.5, tag satisfied; if it stays below, tag not satisfied

# example entries with known answers
| compound | label |
| --- | --- |
| C=CCOC(=O)[C@H]1[C@@H]2C(=O)O[C@@H](c3ccccc3)[C@@H](c3ccccc3)N2[C@@H](c2ccc(OCCOC(=O)[C@H]3C[C@H]4C(=O)NCC(=O)N4[C@H]3c3cccc(OCCO)c3)cc2)[C@]12C(=O)Nc1ccc(I)cc12 | not satisfied |
| CN1C(=O)C2CC=C(C3=CCO[C@@H]3[C@H]3CCCN3S(=O)(=O)c3ccccc3[N+](=O)[O-])CC2C1=O (some centres not stated) | not satisfied |
| C=C(CCCC)/C(=C/C[C@@H](OC(C)=O)c1ccc(OCCO)cc1)c1cc(C(=O)OC)ccc1OC | satisfied |
| CC[C@@H](O[Si](C#C[Si](C(C)C)(C(C)C)C(C)C)(C(C)C)C(C)C)c1cn([C@H](C)c2ccccc2)nn1 | not satisfied |
| CCOC(=O)C1=CCC(c2ccncc2)N(S(=O)(=O)c2ccc(C)cc2)C1 (configuration not stated) | satisfied |

Challenge: Quick check: does O=C1C2C=CC(C(O)c3ccccn3)N(Nc3ccc([N+](=O)[O-])cc3)C2C(=O)N1c1ccccc1 (configuration not stated) have z-score greater than or equal to 0.5?
Response given: not satisfied

Challenge: Hello, I need to know if CC(C)c1ccc(NN2C(C(O)C(C)c3ccccc3)C=CC3C(=O)N(c4ccccc4)C(=O)C32)cc1 (configuration not stated) has measured z-score not below 0.5. Thanks!
Response given: satisfied

====

experiment: P. aeruginosa biofilm formation inhibitors, primary screen, strain PAO1, LB-PBS medium, absorbance 600 nm (AID 1176); also: test concentration not given here; conditions: P. aeruginosa PAO1 growth/biofilm, A600, 12 h; higher = more signal
This section presents compounds with their documented z-score values.
Hey, just send me the number, nothing else.

Field: example entries. Status: answers known.
| compound | z-score |
| --- | --- |
| COC(=O)[C@@]1(Cc2ccc(F)cc2)[C@H]2c3cc(C(=O)N4CCCC4)n(CCc4c[nH]c5cc(F)ccc45)c3C[C@H]2CN1C(=O)c1ccccc1 | -0.815 |
| CC(C)C(=C=CC[C@H](O)c1cccc(OCCO)c1)C[C@H](O)c1ccccn1 | 0.625 |
| COC(=O)C(CC#Cc1ccc2c(c1)[C@]1(C(=O)N2)[C@H](C(=O)N2CCCCCCC2)[C@H]2C(=O)O[C@H](c3ccccc3)[C@H](c3ccccc3)N2[C@@H]1c1ccc(OCCO)cc1)C(=O)OC | 2.05 |
| CC[C@@H]1C=C(C(=O)O)[C@H](c2cccc(Cl)c2)N1S(=O)(=O)c1ccc(C)cc1 | -0.184 |
| Cc1ccc(S[C@]2(C(=O)NC(C)C)CC(=O)N(Cc3ccccc3)[C@@H]2c2ccc(CO)cc2I)cc1 | 0.003 |
| CN1C(=O)C2C=CC(C(O)c3cccs3)N(N(c3ccccc3)c3ccccc3)C2C1=O (stereo not drawn) | 0.419 |
| COc1ccc([Si](C)(C)[C@H]2[C@H](CC(=O)N(CCO)Cc3ccccc3)O[C@@]3(C(=O)N(Cc4cccc(N5CCCCC5=O)c4)c4ccccc43)[C@@H]2C)cc1 | 1.77 |

# input for lookup
Challenge: Param item = C=CC[C@H](O)c1ccc(O)c2ccccc12 ; retrieve measured z-score.
Response given: 0.614

====

Let's look at some compounds and their measured z-score.
assay: basal RPMI8226 viability, no added stimulus, profiling panel, cell-based, calcein-AM fluorescence, 48 h, PK04 Diversity Set (AID 1166); conditions: RPMI8226 myeloma viability, higher = more signal;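 also: cells grown under basal conditions without added stimulus; test concentration not given here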
In your answer, state the number alone without any accompanying words.

Examples from the recorded data:
| compound | z-score |
| --- | --- |
| CN(C)CCCCNC(=O)[C@H]1C[C@H]2C(=O)N[C@@H](CCCCN(C)C)C(=O)N2[C@H]1c1ccc(O)cc1 | 1.26 |
| C[N+](C)(C)CCCC[C@@H]1NC(=O)[C@H]2C[C@@H](C(=O)NCCCCCN)[C@@H](c3ccc(O)cc3)N2C1=O | -0.145 |
| CN1C(=O)C2C=CC(C(O)c3cccs3)N(N(c3ccccc3)c3ccccc3)C2C1=O (centres undefined) | 0.398 |

Please look at the following compound next.
Challenge: Report z-score for O=C(N1CCOCC1)[C@]1(CCS(=O)(=O)c2ccccc2)N=C(c2ccc(OCCCO)cc2)O[C@@H]1c1ccccc1 please.
Response given: -0.0091

====

test system: Sonic hedgehog protein (Shh); assay: small-molecule binders of Shh protein, primary screen, biochemical, small-molecule microarray, 635/667 nm fluorescence (AID 1151); conditions: small-molecule microarray binding, 635 nm fluorescence; higher = more signal;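 also: Shh protein binding to compounds spotted on small-molecule microarray slides; score combines spot fluorescence intensity with signal-to-noise across triplicate slides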
property: composite z-score
Enter a number only.

Look over these answered cases.
| molecular_string | composite z-score |
| --- | --- |
| COc1cc(Cc2cc3c(c(-c4ccccc4)n2)[Si](C(C)C)(C(C)C)OC3)cc(OC)c1OC | 0.143 |
| [N-]=[N+]=NCc1ccccc1[C@H]1OC(c2ccc(OCCCO)cc2)=N[C@@]1(Cc1ccccc1N=[N+]=[N-])C(=O)N1CCOCC1 | -1.15 |
| COC(=O)[C@@]1(Cc2ccc(F)cc2)[C@H]2c3cc(C(=O)N(C)C)n(CCF)c3C[C@H]2CN1C(=O)c1ccccc1 | -0.447 |
| O=C1O[C@H](c2ccccc2)[C@H](c2ccccc2)N2[C@H]1[C@@H](C(=O)Nc1nc3ccccc3s1)[C@]1(C(=O)Nc3ccccc31)[C@H]2c1ccccc1OCCO | 0.465 |
| COC(=O)[C@@]1(Cc2ccc(OC)cc2)[C@@H]2[C@@H](CC(=O)[C@H]2CC(=O)C(=O)N(C)C)CN1C(=O)c1ccccc1 | 0.326 |

Challenge: # get_value(readout='composite z-score', item= CO[C@H]1O[C@H](CO)[C@@H](OC(=O)Nc2ccccc2)[C@@H]2OC(=O)[C@@H](Cc3ccccc3)C/C=C/C[C@H](Cc3ccccc3)C(=O)O[C@@H]12 )
Response given: 0.591

Challenge: Quick check: composite z-score of C=CC[C@]1(C(N)=O)N=C(c2ccc(OCCCO)cc2)O[C@H]1c1ccccc1N=[N+]=[N-] ?
Response given: 0.0211

====

z-score by entry:
target: NADPH oxidase 5 (Homo sapiens) (UniProt Q96PH1); experiment: NOX5-dependent H2O2 signal modulators, primary screen, NOX inhibitor project, cell-based, HEK293-NOX5, Amplex Red fluorescence (AID 1161); settings: HEK293-NOX5, ionomycin, 45 min, higher = more signal
Sequence (Q96PH1 whole entry, looked up): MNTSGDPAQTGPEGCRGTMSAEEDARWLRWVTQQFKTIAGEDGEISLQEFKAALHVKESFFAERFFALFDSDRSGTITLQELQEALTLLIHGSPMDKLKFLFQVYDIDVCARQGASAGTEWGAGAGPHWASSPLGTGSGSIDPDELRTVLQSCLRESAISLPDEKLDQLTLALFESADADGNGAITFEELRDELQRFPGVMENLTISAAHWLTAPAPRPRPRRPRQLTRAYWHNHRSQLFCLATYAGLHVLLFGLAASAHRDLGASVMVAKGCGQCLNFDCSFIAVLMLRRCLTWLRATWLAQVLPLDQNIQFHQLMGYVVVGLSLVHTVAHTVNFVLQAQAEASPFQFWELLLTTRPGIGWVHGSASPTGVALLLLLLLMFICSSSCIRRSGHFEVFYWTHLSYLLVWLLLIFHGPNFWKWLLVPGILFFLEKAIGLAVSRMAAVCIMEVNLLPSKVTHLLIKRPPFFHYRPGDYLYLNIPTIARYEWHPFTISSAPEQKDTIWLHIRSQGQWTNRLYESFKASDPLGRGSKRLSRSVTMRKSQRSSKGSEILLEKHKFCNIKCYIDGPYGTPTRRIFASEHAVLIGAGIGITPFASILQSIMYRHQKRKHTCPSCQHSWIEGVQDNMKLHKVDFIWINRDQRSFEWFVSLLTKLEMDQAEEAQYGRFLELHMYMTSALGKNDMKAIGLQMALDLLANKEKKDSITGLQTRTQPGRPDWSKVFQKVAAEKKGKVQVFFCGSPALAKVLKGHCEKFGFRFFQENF
Keep the answer to the number alone.

Answered cases to consult:
| molecule | subject_of_test | z-score |
| --- | --- | --- |
| COC(=O)Cn1c(C(=O)N(C)C)cc2c1C[C@H]1CN(C(=O)c3ccccc3)[C@@](Cc3ccccc3)(C(=O)OC)[C@@H]21 | NADPH oxidase 5 (Homo sapiens) (UniProt Q96PH1) | -0.11 |
| COc1ccc(C#Cc2ccc3c(c2)[C@]2(C(=O)N3)[C@H](c3ccccc3OCCO)N3[C@H](c4ccccc4)[C@H](c4ccccc4)OC(=O)[C@H]3[C@@H]2C(=O)NC[C@H](O)c2ccccc2)cc1 | NADPH oxidase 5 (Homo sapiens) (UniProt Q96PH1) | 1.32 |
| O=C1C[C@@](C(=O)NCC(F)(F)F)(c2ccc([N+](=O)[O-])cc2)[C@@H](c2ccc(CO)cc2I)N1CC12CC3CC(CC(C3)C1)C2 | NADPH oxidase 5 (Homo sapiens) (UniProt Q96PH1) | 0.733 |
| COC(=O)C(CC#Cc1ccc2c(c1)[C@]1(C(=O)N2)[C@H](C(N)=O)[C@H]2C(=O)O[C@H](c3ccccc3)[C@H](c3ccccc3)N2[C@@H]1c1ccccc1OCCO)C(=O)OC | NADPH oxidase 5 (Homo sapiens) (UniProt Q96PH1) | 0.904 |
| C=C(/C=C\CNS(=O)(=O)c1ccc(C)cc1)[C@H](O)[C@H]1CCCN1S(=O)(=O)c1ccccc1[N+](=O)[O-] | NADPH oxidase 5 (Homo sapiens) (UniProt Q96PH1) | -1.77 |
| COc1ccc([Si](C)(C)[C@@H]2[C@@H](CC(=O)N3Cc4ccccc4C[C@H]3CO)O[C@]3(C(=O)N(Cc4ccc(I)cc4)c4ccccc43)[C@H]2C)cc1 | NADPH oxidase 5 (Homo sapiens) (UniProt Q96PH1) | 0.652 |
| CCCCC(=C=CC[C@H](O)c1ccccc1OCCO)CCO | NADPH oxidase 5 (Homo sapiens) (UniProt Q96PH1) | -1.55 |
| COC(=O)[C@@]1(Cc2ccccc2)[C@H]2c3cc(C(=O)N(C)C)n(CCF)c3C[C@H]2CN1C(=O)c1ccccc1 | NADPH oxidase 5 (Homo sapiens) (UniProt Q96PH1) | -1.89 |
| C[N+](C)(C)CCCC[C@@H]1NC(=O)[C@H]2C[C@@H](C(=O)NCCCCCN)[C@@H](c3ccc(O)cc3)N2C1=O | NADPH oxidase 5 (Homo sapiens) (UniProt Q96PH1) | 0.204 |
| CCCCCCCCCCC(O)C1C=CC2C(=O)N(C)C(=O)C2N1Nc1ccccc1 (stereo unspecified) | NADPH oxidase 5 (Homo sapiens) (UniProt Q96PH1) | -1.7 |

// next entry
Challenge: Any idea what z-score was measured for CCCCC(=C=CC[C@@H](O)c1ccccc1OCCO)C[C@@H](O)c1ccccn1 ?
Response given: -1.41
